assay: The drug is tested on WLS-010 corresponding to human gut metagenome with ENA study accession number: PRJEB37062 and ENA sample accession number: ERS12561743 for biotransformation under anaerobic condition. The drug concentrations were measured over 9 timepoints collected between 0 and 24 hours of incubation by liquid-chromatography-coupled mass spectrometry (LC–MS); conditions: 2 µM; note: call rule not given here
readout label: Bacterial Biotransformation

Observe how each entry below is paired with its result.
Cc1ccnc2c1NC(=O)c1cccnc1N2C1CC1 [NEVIRAPINE] :: Compound NOT metabolized
NS(=O)(=O)c1cc2c(cc1Cl)N=C(CSCc1ccccc1)NS2(=O)=O [BENZTHIAZIDE] :: Compound NOT metabolized
Cc1nc2n(c(=O)c1CCN1CCC(c3noc4cc(F)ccc34)CC1)CCCC2O (centres undefined) [PALIPERIDONE] :: Compound metabolized
CN1C(C(=O)Nc2ccccn2)=C(O)c2sccc2S1(=O)=O [TENOXICAM] :: Compound NOT metabolized
CCC1(c2ccc(N)cc2)CCC(=O)NC1=O (centres undefined) [AMINOGLUTETHIMIDE] :: Compound NOT metabolized
CN1CCC(=C2c3ccccc3CCc3cccnc32)CC1.O=C(O)/C=C\C(=O)O.O=C(O)/C=C\C(=O)O [AZATADINE MALEATE] :: Compound NOT metabolized
CN(C)CCC=C1c2ccccc2C=Cc2ccccc21 [CYCLOBENZAPRINE] :: Compound metabolized
COc1ccccc1OCC(O)CN1CCN(CC(=O)Nc2c(C)cccc2C)CC1 (centres undefined) [RANOLAZINE] :: Compound NOT metabolized

Now examine the next entry.
Noted for CC(C)NCC(O)COc1ccc(CCOCC2CC2)cc1 (centres undefined) [BETAXOLOL] : its Bacterial Biotransformation reads Compound NOT metabolized
